- Experimental Target: brain arginase activity
- Assay Summary: arginase activity in brain homogenate
- Measurement Parameters: arginine fixed at Km, assuming competitive inhibition; read-out: estimated Ki, brain arginase activity
- Protocol: Tissue samples of the opossum internal anal sphincter muscle (IAS), adjoining rectal tissue, liver, and brain were homogenized using an ULTRATURRAX™ tissue homogenizer (Tekamr, Cincinnati, Ohio) in a solution comprising 10 millimolar Tris-HCl, 150 millimolar KCl, and 25 millimolar MnCl2, at pH 7.4. […] Arginase activity in tissue homogenates was evaluated using the radioactive L-[guanidino^14C]arginine assay of Rüegg and Russell (1980, Anal. Biochem. 102:206-212). […]

- Molecule: "N[C@@H](CCCCB(O)O)C(=O)O [compound 7, 2(S)-amino-6-boronohexanoic acid]"
  Experimental Target: "brain arginase activity"
  Ki: "18 nM"
